From: the NIST ThermoML archive (doi:10.1016/j.jct.2012.08.010)

Settings: 298.15 K; 101 kPa; Liquid; Vibrating tube method
metricName: mass density (kg/m3)
Your answer should be a plain number; it is taken to be in kg/m3.

Quick one: mass density for Cc1cccc(C)c1 ?
859.83

Quick one: mass density for C=C[Si]1(C)O[Si](C)(C=C)O[Si](C)(C=C)O[Si](C)(C=C)O1 (stereo not given) ?
982.54

Quick one: mass density for CCc1ccccc1 ?
862.55

Quick one: mass density for Cc1ccc(C)cc1 ?
856.62

Quick one: mass density for Cc1ccccc1C ?
875.67

====

Experiment: refractive index (Na D-line) (dimensionless)
Details: 328.15 K; 101.33 kPa; Liquid; Standard Abbe refractometry
metricName: refractive index
Output spec: single numeric token, no unit.

// below: answered molecules
Cc1cccc(C)c1: 1.4782
CCc1ccccc1: 1.47649
C=C[Si]1(C)O[Si](C)(C=C)O[Si](C)(C=C)O[Si](C)(C=C)O1 (stereo not given): 1.41785
Cc1ccc(C)cc1: 1.47654

Quick one: refractive index for Cc1ccccc1C ?
1.48661
